target: Neuronal acetylcholine receptor; alpha4/beta2 (Rattus norvegicus, UniProt P09483+P12390); test: Binding affinity towards Nicotinic acetylcholine receptor alpha4-beta2 in rat brain using [3H]-cytisine as radioligand
Sequence (P09483 whole entry): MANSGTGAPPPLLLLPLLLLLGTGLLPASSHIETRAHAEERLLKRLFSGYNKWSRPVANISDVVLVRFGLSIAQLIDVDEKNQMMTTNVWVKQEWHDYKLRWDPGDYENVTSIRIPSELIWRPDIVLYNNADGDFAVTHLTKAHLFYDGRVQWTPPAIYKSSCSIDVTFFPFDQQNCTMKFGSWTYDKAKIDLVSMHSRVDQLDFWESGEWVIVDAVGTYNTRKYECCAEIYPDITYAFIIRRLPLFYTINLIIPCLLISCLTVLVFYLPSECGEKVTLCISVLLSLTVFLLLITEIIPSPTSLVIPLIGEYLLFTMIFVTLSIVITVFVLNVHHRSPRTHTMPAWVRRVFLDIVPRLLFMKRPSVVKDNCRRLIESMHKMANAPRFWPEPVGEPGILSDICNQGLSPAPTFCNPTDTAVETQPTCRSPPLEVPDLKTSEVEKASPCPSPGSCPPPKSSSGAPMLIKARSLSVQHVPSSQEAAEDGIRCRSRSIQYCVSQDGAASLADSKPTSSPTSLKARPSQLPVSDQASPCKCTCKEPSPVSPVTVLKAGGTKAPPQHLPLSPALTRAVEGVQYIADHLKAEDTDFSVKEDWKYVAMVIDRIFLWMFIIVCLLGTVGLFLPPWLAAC
Sequence (P12390 whole entry): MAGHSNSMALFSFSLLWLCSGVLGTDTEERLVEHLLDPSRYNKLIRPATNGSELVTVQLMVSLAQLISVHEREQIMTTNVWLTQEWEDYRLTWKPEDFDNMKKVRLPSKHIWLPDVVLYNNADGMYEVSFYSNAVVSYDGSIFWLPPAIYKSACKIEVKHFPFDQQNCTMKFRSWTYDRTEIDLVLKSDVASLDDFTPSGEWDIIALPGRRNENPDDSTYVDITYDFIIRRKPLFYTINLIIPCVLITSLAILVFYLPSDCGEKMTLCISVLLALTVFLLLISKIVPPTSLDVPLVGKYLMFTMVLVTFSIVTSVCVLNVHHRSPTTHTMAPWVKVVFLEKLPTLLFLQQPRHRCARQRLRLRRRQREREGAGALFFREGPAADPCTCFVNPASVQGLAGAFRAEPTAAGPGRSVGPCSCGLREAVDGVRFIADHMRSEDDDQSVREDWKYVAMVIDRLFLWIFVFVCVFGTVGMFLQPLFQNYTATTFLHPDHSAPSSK
pKi: −log10 of the molar value.
Each entry gets class 0 if its pKi stays under 10, and class 1 if its pKi is 10 or above.

query: Answer whether pKi of `Clc1ncc(OC[C@@H]2CCN2)cc1-c1ccccc1` is greater than or equal to 10.
result: class 1

query: Answer whether pKi of Clc1ccc(OC[C@H]2CCN2)cn1 [TEBANICLINE] is greater than or equal to 10.
result: class 1

query: Answer whether pKi of `C[C@@H]1CN[C@H]1COc1ccc(Cl)nc1` is greater than or equal to 10.
result: class 0
